- SYSTEM NAME: human ether-à-go-go-related gene (hERG) potassium channel (human);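 also: peak tail current of the secondary pulse compared with the same well before compound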
- Sequence (Q12809 whole entry, looked up): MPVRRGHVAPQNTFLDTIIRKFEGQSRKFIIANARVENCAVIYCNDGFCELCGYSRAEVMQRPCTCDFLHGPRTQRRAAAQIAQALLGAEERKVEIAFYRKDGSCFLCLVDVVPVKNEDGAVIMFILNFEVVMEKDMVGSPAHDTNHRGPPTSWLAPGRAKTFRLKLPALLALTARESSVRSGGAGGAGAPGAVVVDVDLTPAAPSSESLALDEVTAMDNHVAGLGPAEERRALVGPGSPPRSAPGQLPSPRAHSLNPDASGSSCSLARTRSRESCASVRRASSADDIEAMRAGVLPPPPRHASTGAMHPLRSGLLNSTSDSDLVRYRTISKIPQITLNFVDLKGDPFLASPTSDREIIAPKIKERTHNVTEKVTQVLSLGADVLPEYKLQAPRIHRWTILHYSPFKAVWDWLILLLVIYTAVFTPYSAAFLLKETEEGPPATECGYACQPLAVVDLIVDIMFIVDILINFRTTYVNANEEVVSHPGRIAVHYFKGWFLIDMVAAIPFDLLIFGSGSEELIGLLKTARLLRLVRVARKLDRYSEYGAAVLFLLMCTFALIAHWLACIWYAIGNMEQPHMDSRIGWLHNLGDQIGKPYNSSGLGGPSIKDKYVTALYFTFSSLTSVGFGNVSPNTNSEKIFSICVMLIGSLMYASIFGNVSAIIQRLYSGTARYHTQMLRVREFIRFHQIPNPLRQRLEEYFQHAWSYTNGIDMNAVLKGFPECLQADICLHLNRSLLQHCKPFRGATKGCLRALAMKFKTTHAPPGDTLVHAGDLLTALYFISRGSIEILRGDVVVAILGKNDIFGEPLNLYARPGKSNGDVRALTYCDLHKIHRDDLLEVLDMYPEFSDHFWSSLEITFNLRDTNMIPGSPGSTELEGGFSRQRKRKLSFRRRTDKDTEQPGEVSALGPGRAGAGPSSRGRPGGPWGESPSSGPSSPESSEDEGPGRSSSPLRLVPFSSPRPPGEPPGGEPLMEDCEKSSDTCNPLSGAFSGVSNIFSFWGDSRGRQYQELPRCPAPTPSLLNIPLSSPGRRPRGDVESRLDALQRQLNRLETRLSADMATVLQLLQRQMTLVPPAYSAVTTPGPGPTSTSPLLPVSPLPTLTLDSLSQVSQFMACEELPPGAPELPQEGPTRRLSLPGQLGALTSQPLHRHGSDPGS
- ASSAY PROCEDURE: primary screen, population patch clamp on CHO cells stably expressing hERG; higher = less effect of the substance
- Experimental: Briefly, Chinese hamster ovary (CHO) cells stably expressing the hERG channel were dislodged from tissue culture flasks and dispensed into PPC plates. […] During the recording, background leak currents were estimated by a 100 ms step to -80 mV from an initial holding potential of -70 mV and subtracted from the subsequent current measurement. The campaign was conducted in two phases using slight differences in recording protocol. […]
The whole screen tested about 310,000 compounds, of which about 14,000 (4.5%) showed an effect of 50% or more. Effects have a minus sign here. The list comes from a sample in which strong results are over-represented; it also holds close analogues and randomly drawn compounds.
Please provide measured hERG current change (%, negative = inhibition) at 10uM for the entries that follow.
One number for each entry, in %.

Solved entries (count: 6):
COMPOUND	OBS VALUE
C/C(=N/NC(=O)CN1CCN(S(=O)(=O)c2ccc(Br)cc2)CC1)c1ccco1	-68.9
CCOC(=O)C1CCCN(c2nc3ccccc3nc2NS(=O)(=O)c2ccc(C)cc2)C1 (stereo not drawn)	-44.8
O=C(CCCn1c(=O)c2ccccc2n(Cc2ccccc2)c1=O)NCc1ccco1	-7.47
CCOC(=O)C(Cc1ccc(OC)c([N+](=O)[O-])c1)NC(=O)CCC(=O)Nc1ccc(OC)cc1 (stereo not drawn)	1.35
C/C(=N/NC(=O)CN1CCN(S(=O)(=O)c2ccc(C)cc2)CC1)c1cccc(O)c1	-15
CCC(C)NCCOCCSc1ccc(Cl)cc1.O=C(O)C(=O)O (stereo not drawn)	-46.9

Batch request: hERG current change (%, negative = inhibition) at 10uM per item, same order as input.
1. Nc1c(Cl)ncnc1NCCc1ccc(O)cc1
2. CC(C)(C)c1ccc(-n2nc(C(N)=O)c(O)cc2=O)cc1
3. Cc1ccc(S(=O)(=O)N2CCOCC2)cc1NC(=O)CSc1nnc(C2CC2)n1C1CC1

Found:
1: 9.93; 2: 12.9; 3: -7.36
